So I've got a bunch of binders here, and I need their koff values.
- test-target: T1, cynomolgus soluble urokinase plasminogen activator receptor (suPAR) (cynomolgus, UniProt Q9GK78 23-303, limits assumed)
- T1 construct: Target antigen of the off-rate screen; also called cynomolgus uPAR; cynomolgus suPAR
- T1 sequence (Q9GK78 23-303 limits assumed): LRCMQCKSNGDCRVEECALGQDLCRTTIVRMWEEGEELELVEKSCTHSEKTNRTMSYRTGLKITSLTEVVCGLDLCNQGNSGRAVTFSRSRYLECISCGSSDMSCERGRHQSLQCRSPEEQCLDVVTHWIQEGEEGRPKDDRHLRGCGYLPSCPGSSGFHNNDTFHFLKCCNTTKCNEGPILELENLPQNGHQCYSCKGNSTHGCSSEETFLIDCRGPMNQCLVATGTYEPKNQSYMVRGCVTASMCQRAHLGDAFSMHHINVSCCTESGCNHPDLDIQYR
- assay-overview: off-rate (kdis) screen of scFv clones, biosensor (Octet)
A number alone suffices; assume s⁻¹.

Record request: koff value, item suPAR_DB01_C12 (scFv, V domains shown, screened as scFv) VH: QVQLVQSGAEVKKPGASVKVSCKASGDTFTSYYMHWVRQAPGQGLEWMGWIDHENGNTIYDQKFQGRVTMTRDTSTSTVYMELSSLRSEDTAVYYCARGYDVDWFVYWGQGTLVTVSS VL: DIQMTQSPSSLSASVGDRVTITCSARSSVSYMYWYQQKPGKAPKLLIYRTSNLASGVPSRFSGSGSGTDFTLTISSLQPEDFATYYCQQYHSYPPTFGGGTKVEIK
0.000105

Another binder to check: suPAR_DB01_D04 (scFv, V domains shown, screened as scFv) VH: QVQLVQSGAEVKKPGASVKVSCKASGYTFTSYYMHWVRQAPGQGLEWMGWIDHENGSTIYAQKFQGRVTMTRDTSTSTVYMELSSLRSEDTAVYYCARGYDVDWFVYWGQGTLVTVSS VL: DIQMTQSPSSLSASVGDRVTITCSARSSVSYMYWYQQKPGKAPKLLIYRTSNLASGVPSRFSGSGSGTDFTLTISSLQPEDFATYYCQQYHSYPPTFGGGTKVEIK
2.53e-05

Another binder to check: suPAR_DB01_E10 (scFv, V domains shown, screened as scFv) VH: QVQLVQSGAEVKKPGASVKVSCKASGYTFTGYYMHWVRQAPGQGLEWMGWIDHENGSTSYDQKFQGRVTMTRDTSTSTVYMELSSLRSEDTAVYYCARGYDVDWFVYWGQGTLVTVSS VL: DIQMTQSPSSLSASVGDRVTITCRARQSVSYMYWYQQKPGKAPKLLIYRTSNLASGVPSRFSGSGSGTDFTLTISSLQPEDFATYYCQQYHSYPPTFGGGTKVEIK
0.000104

Another binder to check: suPAR_DB01_A05 (scFv, V domains shown, screened as scFv) VH: QVQLVQSGAEVKKPGASVKVSCKASGYTFTGYYMHWVRQAPGQGLEWMGWIDHENGNTIYDQKFQGRVTMTRDTSTSTVYMELSSLRSEDTAVYYCARGYDVDWFVYWGQGTLVTVSS VL: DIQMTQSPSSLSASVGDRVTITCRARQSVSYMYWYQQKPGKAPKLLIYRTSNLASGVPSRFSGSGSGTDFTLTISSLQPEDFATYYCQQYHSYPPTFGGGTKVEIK
0.000326
